Target: human H4 receptor (Homo sapiens)
Construct: expressed in transfected cells
Sequence (Q9H3N8 whole entry): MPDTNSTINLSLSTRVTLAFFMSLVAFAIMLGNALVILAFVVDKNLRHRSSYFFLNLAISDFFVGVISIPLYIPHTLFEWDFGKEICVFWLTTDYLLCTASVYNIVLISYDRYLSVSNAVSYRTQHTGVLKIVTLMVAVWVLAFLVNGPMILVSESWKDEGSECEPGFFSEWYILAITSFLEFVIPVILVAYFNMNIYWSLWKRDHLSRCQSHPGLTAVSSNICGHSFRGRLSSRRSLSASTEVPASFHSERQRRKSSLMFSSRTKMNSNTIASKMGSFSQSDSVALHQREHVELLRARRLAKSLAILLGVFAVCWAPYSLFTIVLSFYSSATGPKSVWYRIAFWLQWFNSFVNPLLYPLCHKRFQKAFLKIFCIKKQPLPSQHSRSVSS
Assay: [3H]Histamine binding on membranes of CHO cells stably expressing human H4 receptor
Measured quantity: Ki or IC50 activity class

>>> reading("CN1CCC(OC(c2nc3ccccc3[nH]2)c2cc(C#CCCCCN)ccc2F)CC1 (centres unmarked)")
"< 30 nM"
>>> reading("CN1CCC(OC(c2cccc(C(=O)N(C)Cc3ccccc3)c2)c2nc3ccccc3s2)CC1 (centres unmarked)")
"< 1000 nM"
>>> reading("CN1CCC(OC(c2cccc(-c3ccccc3CO)c2)c2nc3ccccc3s2)CC1 (centres unmarked)")
"< 300 nM"
>>> reading("CN1CCC(OC(c2cccc(F)c2)c2nc3ccccc3[nH]2)CC1 (centres unmarked)")
"< 300 nM"
>>> reading("CN1CCC(OC(c2ccccc2)c2nc3ccccc3[nH]2)C1 (centres unmarked)")
"< 1000 nM"
>>> reading("CN1CCC(OC(c2cccc(OCC3CCNCC3)c2)c2nc3ccccc3s2)CC1 (centres unmarked)")
"< 300 nM"
>>> reading("Cc1ccc(C(OC2CCN(C)CC2)c2nc3ccccc3[nH]2)cc1 (single isomer, unassigned) [Example 252]")
"< 1000 nM"
>>> reading("CN1CCC(OC(c2cccc(C=C3NC(=N)NC3=O)c2)c2nc3ccccc3[nH]2)CC1 (centres unmarked)")
"< 1000 nM"
